target or system: T1, Cynomolgus CXCR2 (cynomolgus, UniProt Q28519 3-353 (rhesus entry))
T1 construct: On transfected HEK293T or RBL-2H3 cells; native on cynomolgus neutrophils in the WBSC assay; also called cCXCR2; cynoCXCR2
T1 chain: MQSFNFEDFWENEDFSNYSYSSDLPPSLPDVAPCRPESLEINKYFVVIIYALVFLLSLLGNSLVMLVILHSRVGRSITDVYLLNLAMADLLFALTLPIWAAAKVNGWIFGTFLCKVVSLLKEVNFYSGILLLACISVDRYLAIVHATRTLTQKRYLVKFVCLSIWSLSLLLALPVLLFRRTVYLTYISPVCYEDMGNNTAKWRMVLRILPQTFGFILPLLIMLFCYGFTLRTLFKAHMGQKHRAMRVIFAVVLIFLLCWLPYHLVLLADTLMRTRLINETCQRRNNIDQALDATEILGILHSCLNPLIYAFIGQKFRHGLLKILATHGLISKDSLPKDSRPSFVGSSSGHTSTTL
assay: FACS competition vs 3 nM FMAT-Blue Gro-α
readout label: IC50 (nM)

binder	observed result
CXCR20026 (bispecific antibody, Biparatopic: two VHH joined by a GlySer linker; also called 163E3-35GS-127D1; 163E3-127D1; not shown: C-terminal c-myc tag and His6 tag coded by pAX100) EVQLVESGGGLVQPGGSLRLSCVASGRIFSSNAMGWFRQAPGKEREFVAAITWRSGGSAYYADSAKGRFTISRDNAKNTVYLQMNSLKPEDTAVYYCAAGGSSWLSFPPDYWGQGTQVTVSSGGGGSGGGGSGGGGSGGGGSGGGGSGGGGSGGGGSEVQLVESGGGLVQAGESLRLSCAASGSTFDFKVMGWYRQPPGKQREGVAAIRLSGNMHYAESVKGRFTISKANAKNTVYLQMNSLRPEDTAVYYCKVNIRGQDYWGQGTQVTVSS	1.82
